Record form. Attribute: AC50. Fill in for each entry.
# TEST_SYSTEM: UniProt:Q03530
# Sequence (Q03530 whole entry): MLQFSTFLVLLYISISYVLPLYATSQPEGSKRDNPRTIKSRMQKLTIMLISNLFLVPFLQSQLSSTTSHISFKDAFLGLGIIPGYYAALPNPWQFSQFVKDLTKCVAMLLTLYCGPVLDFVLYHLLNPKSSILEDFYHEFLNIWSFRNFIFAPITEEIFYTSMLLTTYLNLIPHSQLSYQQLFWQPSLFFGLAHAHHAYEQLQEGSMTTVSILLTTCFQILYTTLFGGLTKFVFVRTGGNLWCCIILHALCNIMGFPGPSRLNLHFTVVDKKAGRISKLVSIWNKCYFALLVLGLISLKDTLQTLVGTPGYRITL
# Type: biochemical
Calls of active or inactive are those of the source.

**Query** Param item = `COc1ccc(-c2oc3ccc(N4CCOCC4)cc3c2C#Cc2ccc(N)cc2)cc1` ; retrieve measured AC50.
**Result** 5.02 µM (active)

**Query** # input compound: O=C(Nc1ccc(Cl)c([N+](=O)[O-])c1)C(Sc1ccccc1)c1ccccc1 (stereo unspecified) ; wanted: its AC50
**Result** 7.77 µM (active)

**Query** Given `CCOC(=O)[C@@H]1[C@H]2COc3ccc(Br)cc3[C@@H]2N2C(=O)N(c3cccc(C)c3)C(=O)[C@]12C` , state its recorded AC50.
**Result** 4.52 µM (active)

**Query** Recorded AC50 of `COc1ccccc1-c1coc2c(CN3CCN(C)CC3)c(O)ccc2c1=O` , please.
**Result** 97.9 µM (active)

**Query** Any idea what its AC50 is? The compound is `CCN(Cc1ccccc1)S(=O)(=O)c1ccc(C(=O)N(CCCN(C)C)c2nc3c(C)c(C)ccc3s2)cc1`
**Result** 11.6 µM (active)

**Query** What measured AC50 goes with `O=C(O)c1cc(-c2ccc(N3CCOCC3)cc2)nn1-c1ccc(F)cc1F` ?
**Result** 13.5 µM (active)

###

I'd appreciate it if you could supply EC50 values for the items below.
# TEST_SYSTEM: Streptokinase A (Streptococcus pyogenes serotype M1, UniProt P10520)
# Sequence (P10520 whole entry): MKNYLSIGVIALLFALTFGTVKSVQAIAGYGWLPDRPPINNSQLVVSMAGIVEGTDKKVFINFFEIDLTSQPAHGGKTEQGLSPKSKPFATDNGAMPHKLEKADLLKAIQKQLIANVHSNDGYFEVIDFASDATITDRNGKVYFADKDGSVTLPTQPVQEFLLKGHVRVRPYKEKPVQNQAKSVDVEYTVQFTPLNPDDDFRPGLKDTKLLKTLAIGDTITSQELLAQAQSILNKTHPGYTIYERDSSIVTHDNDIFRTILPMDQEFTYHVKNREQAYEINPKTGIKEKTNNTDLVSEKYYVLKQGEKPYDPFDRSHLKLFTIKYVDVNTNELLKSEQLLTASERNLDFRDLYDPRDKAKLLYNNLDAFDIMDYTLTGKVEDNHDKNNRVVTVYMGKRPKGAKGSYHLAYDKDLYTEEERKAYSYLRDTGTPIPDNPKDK
# ASSAY_METHOD_TEXT: viability-normalized secreted streptokinase activity reduction – plasminogen activation absorbance, OD405, dose response (AID 1914);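 also: secreted streptokinase activity via plasminogen activation per viability signal from cell pellet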
# Type: functional, Streptococcus pyogenes M1 GAS
Activity calls are given as the source filed them.

**Query** Consider the compound COc1cccc(-c2nc(N3CC(C)CC(C)C3)c3ccccc3n2)c1O (stereo not given) and give its measured EC50.
**Result** 6.53 µM (active)

**Query** # input compound: `C=CCn1c(COc2ccccc2)nnc1SCC(=O)N/N=C/c1cc(Cl)ccc1O` ; wanted: its EC50
**Result** > 150 µM (not active)

**Query** What value of measured EC50 is listed for `FC(F)(F)c1cccc(-c2cc3ccccc3nc2N2CCCC2)c1` ?
**Result** 9.12 µM (active)

**Query** Suppose we examine the compound `O=C(CSc1nnc(CNC(=O)c2ccccc2)o1)NCCc1ccccc1` ; what EC50 value has been reported?
**Result** > 150 µM (not active)

**Query** Item CCC(=O)NC(c1ccc(C)cc1)c1cc([N+](=O)[O-])c2cccnc2c1O (stereo not given) has what recorded EC50?
**Result** 56.5 µM (active)

**Query** Record request: EC50 value, item `CCOC(=O)c1c(NS(=O)(=O)c2ccc(Br)cc2)sc2c1CCC2`
**Result** > 150 µM (not active)

**Query** # EC50 lookup, item `Nc1nc(NC(=O)/C=C/c2ccc(F)cc2)nn1-c1ccccc1`
**Result** > 150 µM (not active)

**Query** Fill in: EC50 of `Cc1cccc(Cn2nc(-n3cccc3)c3c(C)cc(C)nc32)c1` is ___
**Result** 15.1 µM (active)

**Query** Entry under review: `Oc1ccc(Cl)cc1CNc1cccc2cccnc12` . Reported EC50?
**Result** > 150 µM (not active)

**Query** Reported EC50, compound `Cc1cccc(/C=C/C(=O)c2ccc([N+](=O)[O-])o2)c1` : ____
**Result** 9.69 µM (active)
